Test system: HepG2
measurement.notes: GSK_TCMDC: Percent inhibition of human HepG2 cell line. Test compounds present at 10uM.
Type: functional
Record true (1) whenever Inhibition is at 4% or higher; record false (0) when lower.

> print(dat)
                                    compound  classification
 1  CCN1CCC(N(Cc2ccc(-c3ccc(C(F)(F)F)cc3)cc2)C(=O)CCCCn2c(CCc3cccc(F)c3F)nc(=O)c3ccccc32)CC1        true (1)
 2     CCOc1ccc(-c2nonc2NC(=O)c2ccco2)cc1OCC       false (0)
 3  Nc1ccc(-c2ccc(NC(=O)Nc3cc(C(F)(F)F)ccc3F)cc2)cn1       false (0)
 4  CC(C)c1ccc(CN2CCCCC(NC(=O)c3cc(-c4cccc(F)c4)cs3)C2)cc1.O=C(O)C(F)(F)F (stereo not drawn)        true (1)
 5  O=C(Nc1cccc(CN2CCCN(Cc3ccsc3)CC2)c1)c1ccc(Cl)c(Cl)c1.O=C(O)C(F)(F)F        true (1)
 6  O=C(Nc1ccc(OC2CCN(Cc3ccsc3)C2)c(Cl)c1)c1ccc(F)cc1.O=C(O)C(F)(F)F (stereo not drawn)       false (0)
 7  O=C(NCC1CCN(Cc2cccc(C(F)(F)F)c2)C1)c1cc(-c2cccc(C(F)(F)F)c2)cs1.O=C(O)C(F)(F)F (stereo not drawn)        true (1)
 8          N=C(N)NC(=O)Nc1cc(F)c(Cl)c(Br)c1       false (0)
 9  CCCCCN1CCC(CNS(=O)(=O)c2ccc(C(=O)Nc3cccc(C(F)(F)F)c3)cc2)CC1.O=C(O)C(F)(F)F        true (1)
10  CCCNC(=O)C1CCN(C(c2ccccc2)c2ccc(Cl)c(Cl)c2)CC1 (stereo not drawn)        true (1)
11  Cc1cccc(Cl)c1S(=O)(=O)N1CCCCC(c2ccc(C(F)(F)F)cc2)=N1        true (1)
12  O=C(NC1CCN(Cc2cccc(C(F)(F)F)c2)CC1)c1ccc(-c2cccc(C(F)(F)F)c2)s1.O=C(O)C(F)(F)F        true (1)
13  COc1cccc(NC(=O)[C@H](C(C)C)n2c(=O)[nH]c3ccccc3c2=O)c1       false (0)
14  CCN(CC)CCCC(C)N=c1cc(C=Cc2ccccc2Cl)[nH]c2cc(Cl)ccc12.O=P(O)(O)O (stereo not drawn)       false (0)
15  COc1cc2nc(Nc3ccc(Oc4ccccc4)cc3)nc(Nc3ccc(Oc4ccccc4)cc3)c2cc1OC        true (1)
16  CCCNCc1ccc(-c2ccc(CN(CCOC)C(=O)c3ccc([N+](=O)[O-])c(C)c3)cc2)nc1.O=C(O)C(F)(F)F       false (0)
17  CCC(CC(C)C(=O)O)=C(c1ccccc1)c1ccccc1 (stereo not drawn)        true (1)

* * *

Tested on: Plasmodium falciparum
measurement.notes: GSK_TCMDC: Inhibition of Plasmodium falciparum Dd2 in whole red blood cells, using parasite LDH activity as an index of growth. Test compounds present at 2uM
Type: functional
quantity.measured: Inhibition (%)

> print(dat)
                                    compound  quantity.measured  uom  reported.value
 1  CCN(CC)CCCN(C(=O)c1cc2c(C)nn(-c3ccccc3)c2s1)c1nc(-c2ccc(OC)cc2)cs1.Cl         Inhibition    %              32
 2  Cc1cc(N[C@@H](Cc2ccccc2)C(=O)NC2CCCC2)nc(NCCCOC(C)C)n1.O=C(O)C(F)(F)F         Inhibition    %              43
 3  Cc1ccc(O)cc1Nc1ccnc2cc(-c3ccncc3)ccc12.Cl         Inhibition    %              84
 4  Cc1cc(C(=O)NC2CCN(Cc3ccccc3)CC2)ccc1-c1nc2cc(Cl)c(Cl)cc2[nH]1         Inhibition    %              32
 5  Cl.O=C(c1cccc(COc2ccc3c(c2)CCN(C2CCCC2)CC3)c1)N1CCN(c2ccncc2)CC1         Inhibition    %              35
 6  CCC1CCc2cc(N)cc(-c3nc4c(c(C)nn4CC)c(=O)[nH]3)c2O1 (stereo not drawn)         Inhibition    %              42
 7   Brc1ccc(Nc2nc(NCc3ccccc3)c3ccccc3n2)cc1         Inhibition    %              99
 8  Cc1nnc(-c2cccc(Nc3ccnc4cc(-c5nccs5)ccc34)c2)o1.Cl         Inhibition    %              89
 9  COc1ccc(CNc2nccc3ccc(-c4ccc(N)nc4)cc23)cc1.O=C(O)C(F)(F)F         Inhibition    %              49
10  Cc1cc(N/N=C/c2ccccc2[N+](=O)[O-])c2ccc(F)cc2n1         Inhibition    %             100
11  O=C(O)C(F)(F)F.O=C1CCCN1CCCNCc1ccc(-c2ccc(-c3nc4cc(C(F)(F)F)ccc4[nH]3)s2)cc1         Inhibition    %              96
12  CCNc1cc(C(=O)N[C@@H](Cc2ccccc2)[C@H](O)CNC2CC3CCC2C3)cc(N2CCCCS2(=O)=O)c1.Cl (stereo partly drawn)         Inhibition    %              73
13  Cc1ccc(NC(=O)Nc2ccc(Cl)cc2)cc1-c1cccc(C(=O)Nc2ccc(F)cc2)c1         Inhibition    %              52
14  CN1CCN(CCCN(Cc2cccc(-c3ccc(CNC4CCCC4)cc3)c2)C(=O)/C=C/c2ccccc2)CC1.O=C(O)C(F)(F)F         Inhibition    %              96
15  CC1CCCN(S(=O)(=O)c2cc(Br)cc3c2N(C(=O)C2CC2)CC3)C1 (stereo not drawn)         Inhibition    %              70
16  COc1ccc(CNCc2cccc(-c3cccc(-c4nc5ccccc5[nH]4)c3)c2)cc1.O=C(O)C(F)(F)F         Inhibition    %              50
17  COc1ccc(NC(=O)/C=C/c2ccccc2Cl)cc1OCCN1CCC(c2nc3ccccc3[nH]2)CC1.Cl         Inhibition    %              16
18  Cc1nnc2c(NC(=O)NC3CCCC3)cc3cc(-c4ccc(CN5CCCCC5)cc4)ccc3n12         Inhibition    %              93
